MEASURED_TARGET: human CD3 epsilon/delta heterodimer, Fc-tagged (human)
Sequence (chain, as listed by the source mutant, chain 1 of 2): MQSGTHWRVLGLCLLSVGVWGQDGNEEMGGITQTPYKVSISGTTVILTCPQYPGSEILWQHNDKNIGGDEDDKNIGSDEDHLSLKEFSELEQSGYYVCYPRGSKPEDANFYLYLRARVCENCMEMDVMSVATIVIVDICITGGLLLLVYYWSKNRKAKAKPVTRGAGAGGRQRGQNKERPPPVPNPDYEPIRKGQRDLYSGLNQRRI
Sequence (chain, as listed by the source mutant, chain 2 of 2): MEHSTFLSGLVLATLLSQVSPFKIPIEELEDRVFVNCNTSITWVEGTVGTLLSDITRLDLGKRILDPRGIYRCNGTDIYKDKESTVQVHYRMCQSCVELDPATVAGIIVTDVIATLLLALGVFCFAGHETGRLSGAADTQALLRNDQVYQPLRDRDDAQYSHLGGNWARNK
MEASUREMENT_NOTES: SPR, 25C antigen-capture
pKd: −log10 of the molar value.

# BINDER, pKd
measured = [
    ("H1H5769P (antibody, V domains shown) VH: EVQLVESGGGLVQPGRSLRLSCAASGFTFDDYTMHWVRQVPGKGLEWISGISWNSGSMDYADSVKGRFTISRDNARNSLFLQMNSVRTEDTALYYCAKDKSGYGSFYYGMDVWGQGTTVTVSS VL: EIVLTQSPGTLSLSPGDRATLSCRASQSVSSIYLAWYQQKPGQAPRLLIHGASTRATGIPDRFSGSGSGTDFTLTISRLEPEDFAVYYCQQRAHSPYTFGQGTKLEIK", 8.36),
]
